tgt: T1, TNFR2-His (Sino Biological, 10417-H08H, NP_001057.1 Met1-Asp257, with multi-histidine tag expressed on … (human, UniProt P20333 23-257))
T1 construct: range 1-257; Bought protein; also called recombinant human TNFR2 protein; TNFR2-His antigen; not shown: C-terminal multi-histidine tag
T1 sequence (looked up): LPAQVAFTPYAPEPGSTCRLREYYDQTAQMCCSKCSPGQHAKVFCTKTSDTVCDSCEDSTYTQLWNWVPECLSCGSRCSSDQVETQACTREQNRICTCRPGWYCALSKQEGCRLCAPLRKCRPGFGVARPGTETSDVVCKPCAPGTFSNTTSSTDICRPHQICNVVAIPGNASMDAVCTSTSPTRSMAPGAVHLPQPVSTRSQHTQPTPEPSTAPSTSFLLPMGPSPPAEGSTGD
test-protocol: BLI, antibody captured on AHC probe, TNFR2-His in solution
measure: Kd (nM)
The figure you give is taken to be in nM; do not add the unit.

The examples below pair each entry with its known result.
33C12huVH2 + huVL1(P07299) (antibody, V domains shown, Humanized 33C12) VH: EVQLVESGGGLVKPGGSLRLSCAASGFTFSDYTMSWVRQAPGKGLEWVATISTGGSYTYYPDSVKGRFTISRDNAKNTLYLQMSSLRAEDTAVYYCARDGGYDGDYFDYWGQGTTVTVSS VL: ENVLTQSPATLSLSPGERATMSCRASSSVSSSYLHWYQQKPGQAPRLWIYRTSNLASGVPARFSGSGSGTDYTLTISRVEPEDFAVYYCQQYSGYPLTFGGGTKLEIK
15.1
human-mouse chimeric TNFR2 monoclonal antibody 33C12-hFc (antibody, V domains shown, Mouse V regions of clone 33C12 with human constant regions; also called human-mouse chimeric 33C12 antibody) VH: DVKLVESGGGLVKPGGSLKLSCAASGFTFSDYTMSWVRQTPEKRLEWVATISTGGSYTYYPDSVKGRFTISRDNAKNTLYLQMSSLKSEDTAMYYCTRDGGYDGDYFDYWGQGTTLTVSS VL: ENVLTQSPAIMSASPGEKVTMTCRASSSVSSSYLHWYQQKSGASPKLWIYRTSNLASGVPARFSGSGSGTSYSLTISSVEAEDAATYYCQQYSGYPLTFGAGTRLELK
17.3

Lab note: next binder to report on.
Kindly note the recorded Kd for 33C12huVH2 + huVL3(P07303) (antibody, V domains shown, Humanized 33C12) VH: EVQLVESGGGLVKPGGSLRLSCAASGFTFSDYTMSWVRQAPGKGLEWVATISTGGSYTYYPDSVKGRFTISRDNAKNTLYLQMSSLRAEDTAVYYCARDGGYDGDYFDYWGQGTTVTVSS VL: EIVLTQSPATLSLSPGERATLSCRASSSVSSSYLHWYQQKPGQAPRLLIYRTSNLATGIPDRFSGSGSGTDFTLTISRLEPEDFAVYYCQQYSGYPLTFGGGTKLEIK , which is 16.3
